Target: T1, human CD22 on CD22-positive Burkitt's lymphoma cells (Daudi, Raji, Ramos) (human, UniProt P20273 20-847)
T1 construct: whole, on cells; also called CD22+ cells; CD22 positive cells
T1 sequence (looked up): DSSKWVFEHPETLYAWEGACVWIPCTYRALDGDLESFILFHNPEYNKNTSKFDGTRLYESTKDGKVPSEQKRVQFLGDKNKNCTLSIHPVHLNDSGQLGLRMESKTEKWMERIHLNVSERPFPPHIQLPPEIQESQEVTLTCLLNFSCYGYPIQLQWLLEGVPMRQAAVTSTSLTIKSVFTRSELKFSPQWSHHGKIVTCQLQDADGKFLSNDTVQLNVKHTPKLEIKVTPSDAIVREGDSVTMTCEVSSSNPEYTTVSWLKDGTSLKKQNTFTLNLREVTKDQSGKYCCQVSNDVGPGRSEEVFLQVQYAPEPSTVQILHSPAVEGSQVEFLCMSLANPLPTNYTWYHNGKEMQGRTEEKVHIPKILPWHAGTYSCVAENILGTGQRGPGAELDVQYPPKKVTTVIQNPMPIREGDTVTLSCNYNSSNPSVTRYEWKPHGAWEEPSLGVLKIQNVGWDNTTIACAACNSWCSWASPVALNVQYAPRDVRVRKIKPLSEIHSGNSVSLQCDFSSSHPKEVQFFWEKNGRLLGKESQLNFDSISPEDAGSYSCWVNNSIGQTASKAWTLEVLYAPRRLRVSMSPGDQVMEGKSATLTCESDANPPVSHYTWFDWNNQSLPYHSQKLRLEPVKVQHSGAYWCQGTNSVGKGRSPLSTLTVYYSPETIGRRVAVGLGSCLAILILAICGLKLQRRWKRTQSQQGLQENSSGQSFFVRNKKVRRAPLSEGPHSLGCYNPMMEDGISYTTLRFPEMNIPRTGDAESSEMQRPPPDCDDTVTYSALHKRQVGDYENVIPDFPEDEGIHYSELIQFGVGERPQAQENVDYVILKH
Test: cell binding, Daudi cells
measuredAttribute: binding result

>  <binder>
anti-CD22 heavy chain-only antibody with the VH of SEQ ID NO: 56 (antibody, V domains shown, Heavy chain-only antibody (UniAb), human IgG) VH: QLQLQESGPGLVKPSETLSLTCTVSGGSISSSSYYWGWIRQPPGKGLEWIGHIYYSGVTYYNPSLKNRVTISVDTSKNQFSLKLSSVTAADTAAYYCTRDDSSNWRSRGQGTLVTVSS

>  <binding result>
binds

$$$$
>  <binder>
anti-CD22 heavy chain-only antibody with the VH of SEQ ID NO: 43 (antibody, V domains shown, Heavy chain-only antibody (UniAb), human IgG) VH: QLQLQESGPGLVKPSETLSLTCTVSGGSISSGDYYWGWIRQPPGKGLEWIGHIYYSGATYYNPSLKNRVTISVDTSRNQFSLKLSSVTAADTAVYYCTRDDSSNWRSRGQGTLVTVSS

>  <binding result>
binds

$$$$
>  <binder>
anti-CD22 heavy chain-only antibody with the VH of SEQ ID NO: 33 (antibody, V domains shown, Heavy chain-only antibody (UniAb), human IgG) VH: QLQLQESGPGLVKPSETLSLTCTVSGDSISSGDYYWGWIRQPPGKGLEWIGHIYYSGVTYYNPSLKNRVTISVDTSKNQFSLKLSSVTAADTAVYYCTRDDSSNWRSRGQGTLVTVSS

>  <binding result>
binds

$$$$
>  <binder>
anti-CD22 heavy chain-only antibody with the VH of SEQ ID NO: 52 (antibody, V domains shown, Heavy chain-only antibody (UniAb), human IgG) VH: QLQLQESGPGLVKPSETLSLTCTVSGDSISSGDYYWGWIRQPPGKGLEWIGSIYYSGSTYYNPSLKSRVTISVDTSKNQFSLKLSSVTAADTAVYYCTREDSSNWRSRGQGTLVTVSS

>  <binding result>
binds

$$$$
>  <binder>
anti-CD22 heavy chain-only antibody with the VH of SEQ ID NO: 54 (antibody, V domains shown, Heavy chain-only antibody (UniAb), human IgG) VH: QLQLQESGPGLVKPSETLSLTCTVSGGSISSGDYYWGWIRQPPGKGLEWIGHIYYSGATYYNPSLKNRVTISVDTSRNQFSLKLSSVTAADTAVYYCTREDSSNWRSRGQGTLVTVSS

>  <binding result>
binds

$$$$
>  <binder>
anti-CD22 heavy chain-only antibody with the VH of SEQ ID NO: 59 (antibody, V domains shown, Heavy chain-only antibody (UniAb), human IgG) VH: QLQLQESGPGLVKPSETLSLTCTVSGDSISSSSYYWGWIRQPPGKGLEWIGSIYYSGSTYYNPSLKSRVTISVDTSKNQFSLKLSSVTAADTAVYYCTREDSSNWRSRGQGTLVTVSS

>  <binding result>
binds

$$$$

Value lookup for binding result; key = anti-CD22 heavy chain-only antibody with the VH of SEQ ID NO: 80 (antibody, V domains shown, Heavy chain-only antibody (UniAb), human IgG) VH: QLQLQESGPGLVKPSETLSLTCTVSGGSISSSSYYWGWIRQPPGKGLEWIGHIYYSGATYYNPSLKNRVTISVDTSRNQFSLNLSSVTAADTAVYYCTREDSSNWRSRGQGTLVTVSS
binds

Find the recorded binding result belonging to anti-CD22 heavy chain-only antibody with the VH of SEQ ID NO: 31 (antibody, V domains shown, Heavy chain-only antibody (UniAb), human IgG) VH: QLQLQESGPGLVKPSETLSLTCTVSGDSISSGGYYWGWIRQPPGKGLEWIGHIYYSGATYYNPSLKNRVTISVDTSKNQFSLKLSSVTAADTAVYYCTRDDSSNWRSRGQGTLVTVSS and report it.
binds

Data provenance: patent US11873336
